All values here come from PubChem BioAssay AID2060899.

# Tested on: 565726-208-R1-J5-PDC complex spheroids, growth inhibition
# PROCEDURE TEXT: Anticancer human tumor 565726-208-R1-J5-PDC patient-derived pancreatic adenocarcinoma cell line growth inhibition [RAS]
# EXPERIMENTAL CONDITIONS: second compound 0.316 µM; first compound 0.000949 µM; hits give low values

{"MOLECULE": "CC1(C)CCC(Nc2ncc(C(F)(F)F)c(-c3c[nH]c4c(P(C)(C)=O)c(C#N)ccc34)n2)CN1 (centres undefined) + C=CC(=O)N1CCN(c2nc(OCC3CCCN3C)nc3c(F)c(-c4nc(N)cc(C)c4C(F)(F)F)c(Cl)cc23)C(C)C1", "MEASURED TARGET": "565726-208-R1-J5-PDC complex spheroids, growth inhibition", "viability, T/C (%)": 130}
{"MOLECULE": "CCc1c2c(nc3ccc(O)cc13)-c1cc3c(c(=O)n1C2)COC(=O)[C@]3(O)CC + C=CC(=O)N1CCN(c2nc(OCC3CCCN3C)nc3c(F)c(-c4nc(N)cc(C)c4C(F)(F)F)c(Cl)cc23)C(C)C1", "MEASURED TARGET": "565726-208-R1-J5-PDC complex spheroids, growth inhibition", "viability, T/C (%)": 113}
{"MOLECULE": "CC1(C)CCC(Nc2ncc(C(F)(F)F)c(-c3c[nH]c4c(P(C)(C)=O)c(C#N)ccc34)n2)CN1 (centres undefined) + C#Cc1c(F)ccc2cc(O)cc(-c3ncc4c(N5CC6CCC(C5)N6)nc(OCC56CCCN5CC(F)C6)nc4c3F)c12", "MEASURED TARGET": "565726-208-R1-J5-PDC complex spheroids, growth inhibition", "viability, T/C (%)": 75}
{"MOLECULE": "CCc1c2c(nc3ccc(O)cc13)-c1cc3c(c(=O)n1C2)COC(=O)[C@]3(O)CC + C#Cc1c(F)ccc2cc(O)cc(-c3ncc4c(N5CC6CCC(C5)N6)nc(OCC56CCCN5CC(F)C6)nc4c3F)c12", "MEASURED TARGET": "565726-208-R1-J5-PDC complex spheroids, growth inhibition", "viability, T/C (%)": 81.1}

* * *

# Test system: 565726-208-R1-J5-PDC complex spheroids, growth inhibition
# PROCEDURE TEXT: Anticancer human tumor 565726-208-R1-J5-PDC cell line growth inhibition [RAS];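 also: spheroids exposed to compounds for seven days before readout; 100% = DMSO vehicle control viability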
# EXPERIMENTAL CONDITIONS: second compound 0.01 µM; first compound 0.0316 µM; hits give low values
Measured viability, T/C by item

{"MOLECULE": "CCN1CCN(Cc2ccc(Nc3ncc(F)c(-c4cc(F)c5nc(C)n(C(C)C)c5c4)n3)nc2)CC1 + C=CC(=O)N1CCN(c2nc(OCC3CCCN3C)nc3c(F)c(-c4nc(N)cc(C)c4C(F)(F)F)c(Cl)cc23)C(C)C1", "MEASURED TARGET": "565726-208-R1-J5-PDC complex spheroids, growth inhibition", "MEASURE UNIT": "%", "viability, T/C": 98.2}
{"MOLECULE": "CC(C)n1nc(-c2ccc3oc(N)nc3c2)c2c(N)ncnc21 + C=CC(=O)N1CCN(c2nc(OCC3CCCN3C)nc3c(F)c(-c4nc(N)cc(C)c4C(F)(F)F)c(Cl)cc23)C(C)C1", "MEASURED TARGET": "565726-208-R1-J5-PDC complex spheroids, growth inhibition", "MEASURE UNIT": "%", "viability, T/C": 48.2}
{"MOLECULE": "CCC(CC)c1cc(NC2CCC(N)C2)n2nccc2n1 (centres undefined) + C=CC(=O)N1CCN(c2nc(OCC3CCCN3C)nc3c(F)c(-c4nc(N)cc(C)c4C(F)(F)F)c(Cl)cc23)C(C)C1", "MEASURED TARGET": "565726-208-R1-J5-PDC complex spheroids, growth inhibition", "MEASURE UNIT": "%", "viability, T/C": 166}
{"MOLECULE": "CC(C)NCC(C(=O)N1CCN(c2ncnc3c2C(C)CC3O)CC1)c1ccc(Cl)cc1 (centres undefined) + C=CC(=O)N1CCN(c2nc(OCC3CCCN3C)nc3c(F)c(-c4nc(N)cc(C)c4C(F)(F)F)c(Cl)cc23)C(C)C1", "MEASURED TARGET": "565726-208-R1-J5-PDC complex spheroids, growth inhibition", "MEASURE UNIT": "%", "viability, T/C": 133}
